The measured values listed here are drawn from patent US10590078B2.

Target: human sodium ion channel 1.7 (hNav1.7) (Homo sapiens)
Sequence (Q15858 whole entry): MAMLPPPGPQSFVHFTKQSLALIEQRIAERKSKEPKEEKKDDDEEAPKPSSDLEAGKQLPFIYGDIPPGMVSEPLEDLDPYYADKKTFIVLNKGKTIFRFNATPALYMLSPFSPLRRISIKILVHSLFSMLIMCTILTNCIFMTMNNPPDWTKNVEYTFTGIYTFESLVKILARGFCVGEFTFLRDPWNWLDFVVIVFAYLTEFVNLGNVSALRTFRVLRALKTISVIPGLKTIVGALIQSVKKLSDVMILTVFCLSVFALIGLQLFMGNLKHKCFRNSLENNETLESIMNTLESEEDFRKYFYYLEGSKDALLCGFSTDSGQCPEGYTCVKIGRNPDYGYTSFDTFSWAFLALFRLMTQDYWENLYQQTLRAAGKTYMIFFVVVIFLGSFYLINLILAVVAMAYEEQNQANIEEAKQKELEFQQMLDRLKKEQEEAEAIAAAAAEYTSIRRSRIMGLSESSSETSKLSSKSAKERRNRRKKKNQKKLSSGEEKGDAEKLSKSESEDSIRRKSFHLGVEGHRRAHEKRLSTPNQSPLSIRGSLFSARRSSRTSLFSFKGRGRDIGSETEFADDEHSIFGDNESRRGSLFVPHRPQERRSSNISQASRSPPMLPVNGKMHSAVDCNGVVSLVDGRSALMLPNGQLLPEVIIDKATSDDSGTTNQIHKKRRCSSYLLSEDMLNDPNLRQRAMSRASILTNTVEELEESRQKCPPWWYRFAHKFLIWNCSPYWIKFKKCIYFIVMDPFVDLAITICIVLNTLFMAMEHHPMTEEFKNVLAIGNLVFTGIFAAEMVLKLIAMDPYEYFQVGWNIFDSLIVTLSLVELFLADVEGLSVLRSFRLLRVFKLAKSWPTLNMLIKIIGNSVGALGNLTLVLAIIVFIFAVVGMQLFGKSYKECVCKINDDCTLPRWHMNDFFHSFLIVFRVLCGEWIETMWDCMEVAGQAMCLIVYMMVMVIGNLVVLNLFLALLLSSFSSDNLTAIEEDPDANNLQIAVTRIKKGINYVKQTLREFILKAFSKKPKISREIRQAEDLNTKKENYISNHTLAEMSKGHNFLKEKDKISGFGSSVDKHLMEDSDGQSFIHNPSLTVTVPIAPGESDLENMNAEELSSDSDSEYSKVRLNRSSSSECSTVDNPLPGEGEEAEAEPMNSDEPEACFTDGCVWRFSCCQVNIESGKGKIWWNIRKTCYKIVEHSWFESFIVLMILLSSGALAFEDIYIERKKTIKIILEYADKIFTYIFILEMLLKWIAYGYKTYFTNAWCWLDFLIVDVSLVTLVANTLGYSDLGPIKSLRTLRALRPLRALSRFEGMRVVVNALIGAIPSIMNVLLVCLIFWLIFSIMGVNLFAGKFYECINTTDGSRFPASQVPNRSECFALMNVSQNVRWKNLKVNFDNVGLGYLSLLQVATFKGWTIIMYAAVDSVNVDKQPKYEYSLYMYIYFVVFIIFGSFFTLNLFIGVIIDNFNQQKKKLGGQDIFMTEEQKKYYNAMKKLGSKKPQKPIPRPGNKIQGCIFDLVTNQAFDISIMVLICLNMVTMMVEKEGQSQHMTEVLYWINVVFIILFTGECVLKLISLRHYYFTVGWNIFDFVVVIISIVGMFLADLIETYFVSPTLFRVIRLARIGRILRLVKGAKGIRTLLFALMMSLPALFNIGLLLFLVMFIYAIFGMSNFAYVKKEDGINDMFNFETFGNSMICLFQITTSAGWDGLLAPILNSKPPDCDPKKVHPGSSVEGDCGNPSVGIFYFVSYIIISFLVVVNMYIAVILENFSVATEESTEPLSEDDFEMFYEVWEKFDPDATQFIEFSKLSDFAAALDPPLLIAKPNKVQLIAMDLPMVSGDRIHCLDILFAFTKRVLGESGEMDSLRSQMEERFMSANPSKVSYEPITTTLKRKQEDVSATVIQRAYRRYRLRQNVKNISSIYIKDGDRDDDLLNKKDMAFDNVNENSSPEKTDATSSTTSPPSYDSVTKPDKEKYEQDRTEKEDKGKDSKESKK
Experiment: Blocking effect against sodium ion channel Nav1.7, IonFlux16 auto patch clamp in hNav1.7 HEK293 cells
Type: cell-based
Conditions: hNav1.7 HEK293 cells; inhibition of peak current after 50 seconds treatment; eight concentrations; read-out: IC50
pIC50: −log10 of the molar value.

molecule: CS(=O)(=O)NC(=O)c1cc(Cl)c(-n2nc(-c3ccc(F)cc3Cl)c3ccccc32)cc1F [Example 175]
pIC50: 7.10
//
molecule: CS(=O)(=O)NC(=O)c1cc(Cl)c(-n2cc(-c3ccc(Cl)nc3)c3cc(Cl)ccc32)cc1F [Example 273]
pIC50: 6.74
//
molecule: CS(=O)(=O)NC(=O)c1cc(Cl)c(-n2nc(/C=C/c3ccc(C(F)(F)F)cc3)c3cc(Cl)ccc32)cc1F [Example 137]
pIC50: 6.17
//
molecule: COc1ccc2c(c1)c(Cl)cn2-c1cc(F)c(C(=O)NS(C)(=O)=O)cc1Cl [Example 268]
pIC50: 6.22
//
molecule: CS(=O)(=O)NC(=O)c1ccc(-n2nc(-c3ccc(Cl)cc3F)c3cc(Cl)ccc32)nc1 [Example 128]
pIC50: 5.88
//
molecule: CS(=O)(=O)NC(=O)c1cc(Cl)c(-n2nc(-c3cccnc3)c3cc(Cl)ccc32)cc1F [Example 50]
pIC50: 6.04
//
molecule: CS(=O)(=O)NC(=O)c1cc(Cl)c(-n2nc(Cl)c3cc(-c4cc(Cl)ccc4F)ccc32)cc1F [Example 254]
pIC50: 6.38
//
molecule: CS(=O)(=O)NC(=O)c1cc(Cl)c(-n2cc(Cl)c3cc(-c4ccc(F)cc4)cnc32)cc1F [Example 257]
pIC50: 6.44
//
molecule: CS(=O)(=O)NC(=O)c1cc(Cl)c(-n2nc(-c3ccc(F)c(F)c3)c3cc(F)ccc32)cc1F [Example 161]
pIC50: 6.92
//
molecule: CS(=O)(=O)NC(=O)c1cc(Cl)c(-n2cc(-c3ccc(F)cc3Cl)c3cc(Cl)cnc32)cc1F [Example 197]
pIC50: 7.40
//
molecule: CS(=O)(=O)NC(=O)c1cc(Cl)c(-n2cc(-c3ccc(C#N)cc3)c3cc(Cl)cnc32)cc1F [Example 187]
pIC50: 6.21
//
molecule: CS(=O)(=O)NC(=O)c1cc(Cl)c(-n2nc(Cl)c3cc(C4CC4)ccc32)cc1F [Example 24]
pIC50: 6.55
//
molecule: CS(=O)(=O)NC(=O)c1cc(Cl)c(-n2nc(Cl)c3cc(-c4cccnc4F)ccc32)cc1F [Example 244]
pIC50: 5.63
//
molecule: CS(=O)(=O)NC(=O)c1cc(Cl)c(-n2nc(-c3cccc(F)c3)c3cc(Cl)ccc32)cc1F [Example 54]
pIC50: 7.59
